Hey, just so you know, these numbers are from patent US20240116892A1.

biological target: JAK2 (JH1 domain-catalytic, Y1007F, Y1008F) kinase (Homo sapiens (Human), UniProt O60674, Y1007F/Y1008F); test: JAK2 JH1 Domain Binding Assay; conditions: qPCR readout
Sequence (O60674 849-1124 Y1007F/Y1008F): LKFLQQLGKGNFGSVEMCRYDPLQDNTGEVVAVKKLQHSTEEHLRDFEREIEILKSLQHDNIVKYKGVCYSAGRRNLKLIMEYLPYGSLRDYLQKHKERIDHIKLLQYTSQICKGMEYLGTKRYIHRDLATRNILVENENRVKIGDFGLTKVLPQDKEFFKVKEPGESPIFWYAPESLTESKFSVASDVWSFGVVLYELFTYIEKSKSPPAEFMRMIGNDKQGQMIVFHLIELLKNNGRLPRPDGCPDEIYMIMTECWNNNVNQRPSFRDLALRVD
Reported Kd values for a set of compounds

| COMPOUND | Kd |
| --- | --- |
| CN1CCC(c2n[nH]c3ncc(N4CC[C@H](N(C)C(=O)Nc5cc(C(F)(F)F)cn(C)c5=O)C(F)(F)C4)cc23)CC1 (single isomer, unassigned) | < 10 nM |
| CN(C(=O)Nc1cc(C(F)(F)F)cn(C)c1=O)C1CCN(c2cnc3[nH]ncc3n2)CC1 | < 10 nM |
| CN(C(=O)Nc1cc(C(F)(F)F)cn(C)c1=O)[C@H]1[C@@H]2CC[C@H]1CN(c1cnc3[nH]ncc3c1)C2 | 10 to 50 nM |

# lookup: Kd of COc1n[nH]c2ncc(N3CCC(N(C)C(=O)Nc4cc(C5CC5)cn([C@@H]5CCCOC5)c4=O)CC3)cc12
< 10 nM

Tell me the measured Kd of CNc1n[nH]c2ncc(N3CCC(N(C)C(=O)Nc4cc(C(F)(F)F)cn(C)c4=O)CC3)cc12 , please.
< 10 nM

----------
biological target: JAK2 (JH1 domain-catalytic, Y1007F, Y1008F) kinase (Homo sapiens (Human), UniProt O60674, Y1007F/Y1008F); assay: JAK2 JH1 Domain Binding Assay; conditions: qPCR readout
pKd: −log10 of the molar value.
RECORDED METRIC: pKd

| COMPOUND | pKd |
| --- | --- |
| CN(C(=O)Nc1cc(C(F)(F)F)cn(C)c1=O)[C@@H]1CCN(c2cnc3[nH]ccc3n2)C[C@H]1F (single isomer, unassigned) | > 8.00 |
| CN(C(=O)Nc1cc(C(C)(C)C)n([C@@H]2CCOC2)n1)C1CCN(c2cnc3[nH]ncc3c2)CC1 | > 8.00 |
| CC(=O)Nc1ccc(N2CCC(N(C)C(=O)Nc3cc(C)cc(C(F)(F)F)c3)CC2)cn1 | > 8.00 |
| CN(C(=O)Nc1cc(C(F)(F)F)cn(C)c1=O)C1CCN(c2ccc(NC(=O)C3CC3)nc2)CC1 | > 8.00 |
| CN(C(=O)Nc1cc(C(F)(F)F)cn(C)c1=O)C1CC2(C1)CN(c1cnc3[nH]ccc3n1)C2 | > 8.00 |

Reported pKd, compound C[C@H]1CN(c2cnc3[nH]ccc3n2)CC[C@H]1N(C)C(=O)Nc1cc(C(F)(F)F)cn(C)c1=O : ____
> 8.00

Entry CNc1ccnc2c(N3CCC(N(C)C(=O)Nc4cc(C(F)(F)F)cn(C)c4=O)CC3)cnn12 : reported pKd = ?
> 8.00

Consider the compound [2H]C1([2H])C[C@H](N(C)C(=O)Nc2cc(C(F)(F)F)cn(C)c2=O)[C@@H](OC)C([2H])([2H])N1c1cnc2[nH]ncc2c1 and give its measured pKd.
7.30 to 8.00

Which value of pKd has been reported for CC(=O)N1CCC(c2n[nH]c3ncc(N4CC[C@H](N(C)C(=O)Nc5cc(C(F)(F)F)cn(C)c5=O)C(F)(F)C4)cc23)CC1 (single isomer, unassigned) in the records?
> 8.00

Which value of pKd has been reported for CN1CCC(c2n[nH]c3ncc(N4CC[C@@H](N(C)C(=O)Nc5cc(C(F)(F)F)cn(C)c5=O)C(F)(F)C4)cc23)CC1 (single isomer, unassigned) in the records?
> 8.00

I would be grateful if you could share the reported pKd for CN(C(=O)Nc1cc(C(F)(F)F)cn(C)c1=O)C1CCN(c2cnn3cc(O[C@@H]4CC[C@H]4O)ncc23)CC1 .
> 8.00

Requested field: pKd. Item: CN1CCN(c2n[nH]c3ncc(N4CC[C@H](N(C)C(=O)Nc5cc(C(F)(F)F)cn(C)c5=O)C(F)(F)C4)cc23)CC1 (single isomer, unassigned)
> 8.00

Quick check: pKd of Cn1cc(C(F)(F)F)cc(NC(=O)N2CCCC23CCN(c2cnc4[nH]ncc4c2)CC3)c1=O ?
7.30 to 8.00

Any idea what pKd was measured for CN(C(=O)Nc1cc(C2CC2)cn([C@H]2CCCOC2)c1=O)C1CCN(c2cnc3[nH]ncc3c2)CC1 (single isomer, unassigned) ?
> 8.00

pKd for COc1c[nH]c2ncc(N3CC[C@H](N(C)C(=O)Nc4cc(C(F)(F)F)cn(C)c4=O)[C@H](F)C3)nc12 ?
> 8.00

# query: pKd of entry Cn1cc(C(F)(F)F)cc(NC(=O)N2CCCC23CCN(c2cnc4[nH]ccc4n2)CC3)c1=O
7.30 to 8.00

// lookup pKd for COc1n[nH]c2ncc(N3CC[C@H](N(C)C(=O)Nc4cc(C(F)(F)F)cn(C)c4=O)[C@H](OC)C3)cc12
> 8.00

I would be grateful if you could share the reported pKd for CN(C(=O)Nc1cc(C(F)(F)F)cn(C)c1=O)[C@H]1CCN(c2cnc3[nH]c(=O)n(C)c3c2)C[C@H]1F .
> 8.00

Recorded pKd of CN(C(=O)Nc1cc(C(F)(F)F)cn(C)c1=O)[C@@H]1CCN(c2cnc3[nH]nc(OC4COC4)c3c2)C[C@@H]1F , please.
5.30 to 6.00

Fill blank: measured pKd of the compound CN(C(=O)Nc1cc(C(F)(F)F)cn(C)c1=O)C1CCN(c2cnc3[nH]cc(F)c3n2)CC1 is ____.
> 8.00

----------
compounds and their reported Kd
target: JAK2 (JH1 domain-catalytic, Y1007F, Y1008F) kinase (Homo sapiens (Human), UniProt O60674, Y1007F/Y1008F); assay: JAK2 JH1 Domain Binding Assay; settings: qPCR readout

The examples below pair each entry with its known result.
| COMPOUND | RECORDED METRIC | OBSERVED RESULT |
| --- | --- | --- |
| CN(C(=O)Nc1cc(C(F)(F)F)cn(C)c1=O)[C@@H]1CCN(c2cnc3[nH]c(=O)[nH]c3c2)C[C@@H]1F [Example I-100-b] | Kd | < 10 nM |
| Cc1c[nH]c2ncc(N3CCC(N(C)C(=O)Nc4cc(C(F)(F)F)cn(C)c4=O)C(F)(F)C3)nc12 (single isomer, unassigned) [Example I-33-a] | Kd | < 10 nM |
| CN(C(=O)Nc1cc(C(F)(F)F)cn(C)c1=O)C1CCN(c2cnccn2)CC1 [Example I-10] | Kd | 10 to 50 nM |
| CN(C(=O)Nc1cc(C(F)(F)F)cn(C)c1=O)C1CC2(C1)CN(c1cnc3[nH]ncc3c1)C2 [Example I-57] | Kd | < 10 nM |
| COc1c[nH]c2ncc(N3CC[C@@H](N(C)C(=O)Nc4cc(C(F)(F)F)cn(C)c4=O)C[C@H]3C)nc12 [Example I-161-b] | Kd | 10 to 50 nM |
| Cc1cc2nc(N3CCC(N(C)C(=O)Nc4cc(C(F)(F)F)cn(C)c4=O)CC3)cnc2[nH]1 [Example I-31] | Kd | < 10 nM |
| CC(=O)Nc1c[nH]c2ncc(N3CC[C@H](N(C)C(=O)Nc4cc(C(F)(F)F)cn(C)c4=O)C(F)(F)C3)cc12 (mixture of isomers) [Example I-172-b] | Kd | < 10 nM |
| CN(C(=O)Nc1cc(C(F)(F)F)cn(C)c1=O)[C@@H]1CCN(c2cnc3[nH]ccc3n2)C[C@@H]1F [Example I-64-a] | Kd | < 10 nM |

Shift focus to the following entry.
Item under review: CO[C@@H]1CN(c2cnc3[nH]ncc3c2)CC[C@@H]1N(C)C(=O)Nc1cc(C(F)(F)F)cn(C)c1=O [Example I-88-b] . Reported Kd?
< 10 nM

----------
Target: JAK2 (JH1 domain-catalytic, Y1007F, Y1008F) kinase (Homo sapiens (Human), UniProt O60674, Y1007F/Y1008F)
Experiment: JAK2 JH1 Domain Binding Assay
Conditions: qPCR readout
Procedure: JAK2 (JH1 domain-catalytic, Y1007F, Y1008F) kinase was expressed as N-terminal fusion to the DNA binding domain of NFkB in transiently transfected HEK293 cells and subsequently tagged with DNA for qPCR detection. Streptavidin-coated magnetic beads were treated with biotinylated small molecule ligands for 30 minutes at room temperature to generate affinity resins for kinase assays. […] The kinase concentration in the eluate was measured by qPCR.
A collection of molecules and their measured Kd

Reference set (3 entries):
| CPD SMILES | Kd |
| --- | --- |
| COc1n[nH]c2ncc(N3CC[C@@H](N(C)C(=O)Nc4cc(C(F)(F)F)cn(C)c4=O)[C@@H](OC)C3)cc12 | < 10 nM |
| COc1n[nH]c2ncc(N3CC[C@H](N(C)C(=O)Nc4cc(C(F)(F)F)cn(C)c4=O)[C@H](C)C3)cc12 | < 10 nM |
| Cn1cc(C(F)(F)F)cc(NC(=O)OC2(C)CCN(c3cnc4[nH]ccc4n3)CC2)c1=O | 50 to 1000 nM |

Continue with the next molecule.
Name the recorded Kd for CNc1n[nH]c2ncc(N3CC[C@H](N(C)C(=O)Nc4cc(C(F)(F)F)cn(C)c4=O)C(F)(F)C3)cc12 .
< 10 nM
